Assay: Selectivity index, ratio of IC50 for African green monkey Vero cells to IC50 for chloroquine-resistant Plasmodium falciparum W2 infected in red blood cells
Assay type: toxicity, cell-based
Conditions: read-out: Ratio IC50
Recorded measurements of selectivity ratio, one per entry
reported-endpoint: selectivity ratio

1) Cc1cc(N(CCCNc2ccnc3cc(Cl)ccc23)Cc2ccco2)nc(N2CCCCC2)n1 = > 139
2) CCN1CCN(c2cc(C)nc(N(CCNc3ccnc4cc(Cl)ccc34)Cc3ccco3)n2)CC1 = > 213
3) Cc1cc(N2CCCCC2)nc(N(CCCNc2ccnc3cc(Cl)ccc23)Cc2ccco2)n1 = > 50.8
4) Cc1cc(N(CCNc2ccnc3cc(Cl)ccc23)Cc2ccco2)nc(N2CCOCC2)n1 = > 82
5) Cc1cc(N(CCNc2ccnc3cc(Cl)ccc23)Cc2ccco2)nc(N2CCCC2)n1 = > 61.3

###

Test system: Plasmodium falciparum
Test: Antimalarial activity against chloroquine-resistant Plasmodium falciparum W2 infected in red blood cells after 72 hrs by Malstat reagent based LDH assay
Format: functional, cell-based
Details: W2, 72 h
pIC50: −log10 of the molar value.
reported-endpoint: pIC50

1) Cc1cc(N2CCCCC2)nc(N(CCCNc2ccnc3cc(Cl)ccc23)Cc2ccco2)n1 = 6.71
2) CCN1CCN(c2nc(C)cc(N(CCCNc3ccnc4cc(Cl)ccc34)Cc3ccco3)n2)CC1 = 7.37
3) CCN1CCN(c2cc(C)nc(N(CCNc3ccnc4cc(Cl)ccc34)Cc3ccco3)n2)CC1 = 7.33
